TESTED SYSTEM: T1, WD40 domain of Cdh1 from Saccharomyces cerevisiae (aa 241–550), for anisotropy (S. cerevisiae, UniProt P53197 241-550)
T1 chain: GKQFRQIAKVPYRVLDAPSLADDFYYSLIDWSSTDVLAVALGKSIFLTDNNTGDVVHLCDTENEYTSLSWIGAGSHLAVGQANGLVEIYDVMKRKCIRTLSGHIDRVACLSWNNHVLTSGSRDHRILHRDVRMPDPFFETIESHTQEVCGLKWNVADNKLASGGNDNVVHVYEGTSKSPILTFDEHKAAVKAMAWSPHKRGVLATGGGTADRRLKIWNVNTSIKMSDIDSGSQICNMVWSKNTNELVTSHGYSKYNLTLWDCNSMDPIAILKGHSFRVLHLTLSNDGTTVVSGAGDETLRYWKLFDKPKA
METHOD: FP
Where no end group is shown, it is not given here. Cy5 = cyanine-5 fluorescent label
Recorded Kd, one value per entry.

query: // query Kd value for entry EQKPKRAALSDITNSFNKMNK-Cy5 [Cy5-labeled Hsl1 D box peptide]
result: 2.9 µM

query: Same thing, different binder: GVSTNKENEGPEYPTKIEK-Cy5 [Cy5-labeled Hsl1 KEN peptide]
result: 22 µM

query: Same thing, different binder: QDSKPRRALTDVPVNNNPLSQK-Cy5 [Cy5-labeled Clb5 D box peptide]
result: > 30.6 µM

query: Same thing, different binder: EQKPKAAAASDITASFNKMNK-Cy5 [Cy5-labeled Hsl1 D box mutant peptide]
result: > 30.6 µM

// next entry
query: // query Kd value for entry AQQQGRLPLAAKDNNRSKSFIK-Cy5 [Cy5-labeled ySecurin D box peptide]
result: > 30.6 µM
